Recorded values, source patent US8716326B2.

# Tested on: Runx2
# Experimental Details: Runx2 activity, 6xOSE2-Luc luciferase reporter in transfected C2C12 cells
# Type: cell-based, Mouse
# Condition Context: Mus musculus, 20 μM, 24 hrs, read-out: luciferase activity relative to control set as 1
Returns 1 (yes) if the recorded fold induction at 20 µM is greater than or equal to 20, and 0 (no) otherwise.

Past entries and their recorded results:
[[record]]
smiles_input = "Nc1ccccc1NC(=O)c1ccc(CN2Cc3cc(-c4ccccc4)ccc3C2=O)cc1"
class = "0 (no)"

[[record]]
smiles_input = "Cc1cc(C(=O)NCCCCCC(=O)Nc2ccccc2N)ccc1-c1ccncc1"
class = "1 (yes)"

[[record]]
smiles_input = "Nc1ccccc1NC(=O)c1ccc(CN2Cc3c(cccc3-c3ccc(Oc4ccccc4)cc3)C2=O)cc1"
class = "0 (no)"

[[record]]
smiles_input = "Cc1c(C(=O)NCc2ccc(C(=O)Nc3ccccc3N)cc2)cccc1-c1ccccc1"
class = "1 (yes)"

[[record]]
smiles_input = "Cc1cc(C)cc(-c2ccc3c(c2)CN(Cc2ccc(C(=O)Nc4ccccc4N)cc2)C3=O)c1"
class = "0 (no)"

[[record]]
smiles_input = "O=C(CCCCCN1Cc2c(cccc2-c2cccnc2)C1=O)NO"
class = "0 (no)"

[[record]]
smiles_input = "COc1ccc(-c2c3c(cc(OC)c2OC)C(=O)N(Cc2ccc(C(=O)Nc4ccccc4N)cc2)C3)cc1OC"
class = "0 (no)"

[[record]]
smiles_input = "COc1ccc(-c2ccc(C(=O)NCCCCCC(=O)Nc3ccccc3N)cc2C)c(OC)c1"
class = "0 (no)"


Determine whether this molecule has fold induction at 20 µM no lower than 20: `Cc1cc(C(=O)NCCCCCC(=O)NO)ccc1-c1ccccc1`
0 (no)

Determine whether this molecule has fold induction at 20 µM no lower than 20: `COc1cc(C(=O)NCc2ccc(C(=O)Nc3ccccc3N)cc2)c(C)c(-c2cc(F)cc(F)c2)c1OC`
1 (yes)
